molecular target: TRBV9+TRAV38 antigen; assay: BLI (OctetRed 96), antigen on AR2G sensors, antibody 126-2 nM, 1:1 model; run 2
OBSERVABLE: pKd
Keep in mind that pKd stands for -log10 of concentration in molar terms.

anti-TRBV9-1 monoclonal antibody (antibody, human IgG1, kappa, V domains shown) VH: QIQLVQSGPELREPGESVKLSCKASGYTFTDYLVHWVKQAPGKGLKWMGWINTYTGTPTYADDFEGRFVFSLEASASTANLQISNLKNEDTATYFCARSWRRGLRGLGFDYWGQGVFVTVSS VL: DVQMTQSPYNLAASPGESVSINCKASKSINKYLAWYQQKPGKPNKLLIYDGSTLQSGIPSRFSGSGSGTDFTLTIRGLEPEDFGLYYCQQHNEYPPTFGAGTKLELKR = 9.44

Exercise: Using the record for anti-TRBV9-3 monoclonal antibody (antibody, human IgG1, kappa, V domains shown) VH: QIQLVQSGPELREPGESVKLSCKASGYTFTDYLVHWVKQAPGKGLKWMGWINTYTGTPTYADDFEGRFVFSLEASASTANLQISNLKNEDTATYFCARSWRRGIRGLGFDYWGQGVFVTVSS VL: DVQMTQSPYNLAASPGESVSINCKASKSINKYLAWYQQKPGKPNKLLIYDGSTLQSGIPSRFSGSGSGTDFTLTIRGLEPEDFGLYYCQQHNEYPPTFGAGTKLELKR , state its measured pKd.
Key: 9.40
